# Tested on: MPNST complex spheroid with HUVEC/MSC, growth, % test/control
# Run description: Anticancer human tumor MPNST cell line growth inhibition [Asc];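 further: compounds left on spheroids for seven days before reading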
# Condition info: second compound 0.316 µM; first compound 1 µM; stronger effect = lower value
Measured viability, T/C, listed per entry for reference.
Your answer is read as %, so omit the unit and give the number.

Worked cases, answers included:
{"columns": ["Compound", "Display unit", "viability, T/C"],
 "data": [
  ["C=CC(=O)N1CCN(c2nc(=O)n(-c3c(C)ccnc3C(C)C)c3nc(-c4c(O)cccc4F)c(F)cc23)C(C)C1 (stereo not drawn) + Cc1c(S(C)(=O)=O)c(-c2cc(F)cc(N3CCN(c4ccc(NS(=O)(=O)c5ccc(NC(CCN6CCC(C(=O)OCCCP(=O)(O)O)CC6)CSc6ccccc6)c(S(=O)(=O)C(F)(F)F)c5)cc4)CC3)c2)c(-c2ccc(Cl)cc2)n1C(C)C", "%", 88.9],
  ["O=C(c1ccc(F)c(F)c1Nc1ccc(I)cc1F)N1CC(O)([C@@H]2CCCCN2)C1 + CNC(C)C(=O)NC1CN(S(=O)(=O)c2cccc(S(=O)(=O)N3CCC4CCC(C(=O)NC(c5ccccc5)c5ccccc5)N4C(=O)C(NC(=O)C(C)NC)C3)c2)CCC2CCC(C(=O)NC(c3ccccc3)c3ccccc3)N2C1=O", "%", 45]
]}

Pending compound:
-- ask Please provide the recorded viability, T/C for O=C(c1cc(Cc2n[nH]c(=O)c3ccccc23)ccc1F)N1CCN(C(=O)C2CC2)CC1 + Cc1c(S(C)(=O)=O)c(-c2cc(F)cc(N3CCN(c4ccc(NS(=O)(=O)c5ccc(NC(CCN6CCC(C(=O)OCCCP(=O)(O)O)CC6)CSc6ccccc6)c(S(=O)(=O)C(F)(F)F)c5)cc4)CC3)c2)c(-c2ccc(Cl)cc2)n1C(C)C , tested on MPNST complex spheroid with HUVEC/MSC, growth, % test/control.
-- reply 69.5

###

# System: MPNST complex spheroid with HUVEC/MSC, growth, % test/control
# Run description: Anticancer human tumor MPNST cell line growth inhibition [Asc];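 further: compounds left on spheroids for seven days before reading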
# Condition info: second compound 0.00316 µM; first compound 0.1 µM; stronger effect = lower value
# maps each entry to its viability, T/C
Answer format: numeric, % implied, no suffix.

Completed entries (count: 3):
{"columns": ["Compound", "viability, T/C (%)"],
 "data": [
  ["O=C(c1cc(Cc2n[nH]c(=O)c3ccccc23)ccc1F)N1CCN(C(=O)C2CC2)CC1 + CNC(C)C(=O)NC1CN(S(=O)(=O)c2cccc(S(=O)(=O)N3CCC4CCC(C(=O)NC(c5ccccc5)c5ccccc5)N4C(=O)C(NC(=O)C(C)NC)C3)c2)CCC2CCC(C(=O)NC(c3ccccc3)c3ccccc3)N2C1=O", 10.7],
  ["NC1CCC(NC2CC2c2ccccc2)CC1 (centres undefined) + CNC(C)C(=O)NC1CN(S(=O)(=O)c2cccc(S(=O)(=O)N3CCC4CCC(C(=O)NC(c5ccccc5)c5ccccc5)N4C(=O)C(NC(=O)C(C)NC)C3)c2)CCC2CCC(C(=O)NC(c3ccccc3)c3ccccc3)N2C1=O", 52.7],
  ["Cn1ncnc1[C@H]1c2n[nH]c(=O)c3cc(F)cc(c23)N[C@@H]1c1ccc(F)cc1 + CNC(C)C(=O)NC1CN(S(=O)(=O)c2cccc(S(=O)(=O)N3CCC4CCC(C(=O)NC(c5ccccc5)c5ccccc5)N4C(=O)C(NC(=O)C(C)NC)C3)c2)CCC2CCC(C(=O)NC(c3ccccc3)c3ccccc3)N2C1=O", 10.7]
]}

Now let's try a different one.
-- ask I would be grateful if you could share the reported viability, T/C for COc1c(OCCCN2CCOCC2)ccc2c3n(c(=NC(=O)c4cnc(N)nc4)nc12)CCN3 + CNC(C)C(=O)NC1CN(S(=O)(=O)c2cccc(S(=O)(=O)N3CCC4CCC(C(=O)NC(c5ccccc5)c5ccccc5)N4C(=O)C(NC(=O)C(C)NC)C3)c2)CCC2CCC(C(=O)NC(c3ccccc3)c3ccccc3)N2C1=O .
-- reply 24.9

###

# Tested on: MPNST complex spheroid with HUVEC/MSC, growth, % test/control
# Run description: Anticancer human tumor MPNST cell line growth inhibition [Asc];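 further: compounds left on spheroids for seven days before reading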
# Condition info: curve of first compound; second compound 0.1 µM
Quantity name: IC50

{"columns": ["Compound", "IC50"],
 "data": [
  ["O=C(c1ccc(F)c(F)c1Nc1ccc(I)cc1F)N1CC(O)([C@@H]2CCCCN2)C1 + CNC(C)C(=O)NC1CN(S(=O)(=O)c2cccc(S(=O)(=O)N3CCC4CCC(C(=O)NC(c5ccccc5)c5ccccc5)N4C(=O)C(NC(=O)C(C)NC)C3)c2)CCC2CCC(C(=O)NC(c3ccccc3)c3ccccc3)N2C1=O", "922 nM"]
]}

-- ask Returns the measured IC50 for the input compound. Input: C=C(F)C(=O)N1CCN(c2nc(OCC3CCCN3C)nc3c2CCN(c2cccc4cccc(Cl)c24)C3)CC1CC#N (stereo not drawn) + Cc1c(S(C)(=O)=O)c(-c2cc(F)cc(N3CCN(c4ccc(NS(=O)(=O)c5ccc(NC(CCN6CCC(C(=O)OCCCP(=O)(O)O)CC6)CSc6ccccc6)c(S(=O)(=O)C(F)(F)F)c5)cc4)CC3)c2)c(-c2ccc(Cl)cc2)n1C(C)C
-- reply > 10000 nM

-- ask I'd like to know its IC50. The compound in question is Cn1ncnc1[C@H]1c2n[nH]c(=O)c3cc(F)cc(c23)N[C@@H]1c1ccc(F)cc1 + Cc1c(S(C)(=O)=O)c(-c2cc(F)cc(N3CCN(c4ccc(NS(=O)(=O)c5ccc(NC(CCN6CCC(C(=O)OCCCP(=O)(O)O)CC6)CSc6ccccc6)c(S(=O)(=O)C(F)(F)F)c5)cc4)CC3)c2)c(-c2ccc(Cl)cc2)n1C(C)C
-- reply > 100 nM

###

Let's look at some molecules and their measured viability, T/C.
# Test system: MPNST complex spheroid with HUVEC/MSC, growth, % test/control
# Run description: Anticancer human tumor MPNST cell line growth inhibition [Asc];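 further: compounds left on spheroids for seven days before reading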
# Condition info: second compound 3.16 µM; first compound 0.1 µM; stronger effect = lower value
# From the text: Multicellular complex tumor spheroid response to apoptosis pathway targeting inhibitors Alrizomadlin, Pelcitoclax, and Dasminapant in combination with a variety of drugs and investigational agents in selected tumor cell lines […] Compounds. […] If the clinical Cmax for an agent had not been determined, the highest concentration tested was 10 microM. […]

{"columns": ["Molecule", "System name", "Quantity name", "Value measured"],
 "data": [
  ["NC1CCC(NC2CC2c2ccccc2)CC1 (stereo not drawn) + Cc1c(S(C)(=O)=O)c(-c2cc(F)cc(N3CCN(c4ccc(NS(=O)(=O)c5ccc(NC(CCN6CCC(C(=O)OCCCP(=O)(O)O)CC6)CSc6ccccc6)c(S(=O)(=O)C(F)(F)F)c5)cc4)CC3)c2)c(-c2ccc(Cl)cc2)n1C(C)C", "MPNST complex spheroid with HUVEC/MSC, growth, % test/control", "viability, T/C", "54.1%"],
  ["C=C(F)C(=O)N1CCN(c2nc(OCC3CCCN3C)nc3c2CCN(c2cccc4cccc(Cl)c24)C3)CC1CC#N (stereo not drawn) + Cc1c(S(C)(=O)=O)c(-c2cc(F)cc(N3CCN(c4ccc(NS(=O)(=O)c5ccc(NC(CCN6CCC(C(=O)OCCCP(=O)(O)O)CC6)CSc6ccccc6)c(S(=O)(=O)C(F)(F)F)c5)cc4)CC3)c2)c(-c2ccc(Cl)cc2)n1C(C)C", "MPNST complex spheroid with HUVEC/MSC, growth, % test/control", "viability, T/C", "70%"]
]}

Please find the next molecule below.
-- ask Look at this molecule and give its reported viability, T/C. O=C(c1ccc(F)c(F)c1Nc1ccc(I)cc1F)N1CC(O)([C@@H]2CCCCN2)C1 + Cc1c(S(C)(=O)=O)c(-c2cc(F)cc(N3CCN(c4ccc(NS(=O)(=O)c5ccc(NC(CCN6CCC(C(=O)OCCCP(=O)(O)O)CC6)CSc6ccccc6)c(S(=O)(=O)C(F)(F)F)c5)cc4)CC3)c2)c(-c2ccc(Cl)cc2)n1C(C)C
-- reply 110%

###

# Tested on: MPNST complex spheroid with HUVEC/MSC, growth, % test/control
# Run description: Anticancer human tumor MPNST cell line growth inhibition [Asc];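 further: compounds left on spheroids for seven days before reading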
# Condition info: second compound 1 µM; first compound 1 µM; stronger effect = lower value
Quantity name: viability, T/C (%)
Just the number please, in %, no unit attached.

Record excerpt, results attached:
{"columns": ["Compound", "Value measured"],
 "data": [
  ["C=C(F)C(=O)N1CCN(c2nc(OCC3CCCN3C)nc3c2CCN(c2cccc4cccc(Cl)c24)C3)CC1CC#N (stereo not drawn) + Cc1c(S(C)(=O)=O)c(-c2cc(F)cc(N3CCN(c4ccc(NS(=O)(=O)c5ccc(NC(CCN6CCC(C(=O)OCCCP(=O)(O)O)CC6)CSc6ccccc6)c(S(=O)(=O)C(F)(F)F)c5)cc4)CC3)c2)c(-c2ccc(Cl)cc2)n1C(C)C", 53.9],
  ["C=C(F)C(=O)N1CCN(c2nc(OCC3CCCN3C)nc3c2CCN(c2cccc4cccc(Cl)c24)C3)CC1CC#N (stereo not drawn) + CNC(C)C(=O)NC1CN(S(=O)(=O)c2cccc(S(=O)(=O)N3CCC4CCC(C(=O)NC(c5ccccc5)c5ccccc5)N4C(=O)C(NC(=O)C(C)NC)C3)c2)CCC2CCC(C(=O)NC(c3ccccc3)c3ccccc3)N2C1=O", 77.1]
]}

Next up:
-- ask Field: viability, T/C (MPNST complex spheroid with HUVEC/MSC, growth, % test/control). Entry: O=C(c1cc(Cc2n[nH]c(=O)c3ccccc23)ccc1F)N1CCN(C(=O)C2CC2)CC1 + Cc1c(S(C)(=O)=O)c(-c2cc(F)cc(N3CCN(c4ccc(NS(=O)(=O)c5ccc(NC(CCN6CCC(C(=O)OCCCP(=O)(O)O)CC6)CSc6ccccc6)c(S(=O)(=O)C(F)(F)F)c5)cc4)CC3)c2)c(-c2ccc(Cl)cc2)n1C(C)C
-- reply 79.7
